- test_system: T1, cyno pro-myostatin (cynomolgus monkey, Biotinylated for capture in the SPR assay (site not stated). The native form is a disulfide-linked homodimer, partly furin-cleaved; one chain is given.)
- T1 construct: also called proGDF8 (cynomolgus); cynomolgus monkey pro-myostatin
- method_description: SPR Biacore 8K, biotin-antigen captured
observable: koff (s⁻¹)

[[record]]
binder = "Ab102 (antibody, human IgG4 S228P, kappa, V domains shown) VH: EVQLVESGGGLVQPGGSLRLSCAASGFTFTSYGMSWVRQAPGKGLELVASITGSGGETYYPDSVKGRFTISRDNAKNSLYLQMNSLRAEDTAVYYCARDLLVRFLEWSHYYGMDVWGQGTTVTVSS VL: DIVMTQSPLSLPVTPGEPASISCRSSQSLLHSSGHNFLHWYLQKPGQSPQLLIYETSNRAPGIPDRFSGSGSGTDFTLKISRVEAEDVGVYYCMQATQFPRPFGGGTKVEIKR"
observable = "koff"
numeric_value = 0.000335

[[record]]
binder = "Ab101 (antibody, human IgG4 S228P, kappa, V domains shown) VH: EVQLVESGGGLVQPGGSLRLSCAASGSAFSSYGMSWVRQAPGKGLELVASINSNGGSTYYPDSVKGRFTISRDNAKNSLYLQMNSLRAEDTAVYYCARDLLVRFLEWSHYYGMDVWGQGTTVTVSS VL: DIVMTQSPLSLPVTPGEPASISCRSSQSLLHSSGHNFLHWYLQKPGQSPQLLIYEVSNRVSGVPDRFSGSGSGTDFTLKISRVEAEDVGVYYCMQQTQYPPTFGGGTKVEIKR"
observable = "koff"
numeric_value = 0.000317

